tested on: Common Chickweed; assay: post-emergence herbicide test; type: in vivo; settings: post-emergence, 0.893 lb/A; read-out: % plant inhibition
Reported inhibition at 1000.92 g/ha values are given for each entry in this list.

>  <querySmiles>
Cc1c(-c2cc(F)ccc2F)nn(C)c1C(F)(F)F

>  <unitsSymbol>
%

>  <inhibition at 1000.92 g/ha>
0

$$$$
>  <querySmiles>
Cc1c(-c2cc(O)c(Cl)cc2F)nn(C)c1C(F)(F)F

>  <unitsSymbol>
%

>  <inhibition at 1000.92 g/ha>
98

$$$$
>  <querySmiles>
COc1cc(-c2nn(C)c(C(F)(F)F)c2C)c(F)cc1Cl

>  <unitsSymbol>
%

>  <inhibition at 1000.92 g/ha>
80

$$$$
>  <querySmiles>
Cn1nc(-c2cc(F)ccc2F)c(C=O)c1C(F)(F)F

>  <unitsSymbol>
%

>  <inhibition at 1000.92 g/ha>
0

$$$$
>  <querySmiles>
COc1cc(-c2nn(C)c(C(F)(F)F)c2C)c(F)cc1[N+](=O)[O-]

>  <unitsSymbol>
%

>  <inhibition at 1000.92 g/ha>
65

$$$$
>  <querySmiles>
Cc1c(-c2cc(OCC(=O)OC(C)C)c(Cl)cc2F)nn(C)c1C(F)(F)F

>  <unitsSymbol>
%

>  <inhibition at 1000.92 g/ha>
98

$$$$
>  <querySmiles>
C#CCOc1cc(-c2nn(C)c(C(F)(F)F)c2C)c(F)cc1Cl

>  <unitsSymbol>
%

>  <inhibition at 1000.92 g/ha>
100

$$$$

====

test system: Morning Glory; assay: post-emergence herbicide test; type: in vivo; settings: Ipomoea, post-emergence, 0.25 lb/A; read-out: % plant inhibition
recordedEndpoint: inhibition at 280.212 g/ha (%)

>  <molecule>
Cc1c(-c2cc(C(=O)OCSC#N)c(Cl)cc2F)nn(C)c1C(F)(F)F

>  <recordedEndpoint>
inhibition at 280.212 g/ha

>  <result>
35

$$$$
>  <molecule>
Cc1c(-c2cc(CS)c(Cl)cc2F)nn(C)c1C(F)(F)F

>  <recordedEndpoint>
inhibition at 280.212 g/ha

>  <result>
65

$$$$
>  <molecule>
Cc1c(-c2cc(C(=O)OCc3ccccc3)c(Cl)cc2F)nn(C)c1C(F)(F)F

>  <recordedEndpoint>
inhibition at 280.212 g/ha

>  <result>
75

$$$$
>  <molecule>
CSCc1cc(-c2nn(C)c(C(F)(F)F)c2C)c(F)cc1Cl

>  <recordedEndpoint>
inhibition at 280.212 g/ha

>  <result>
95

$$$$
>  <molecule>
C#CCOC(=O)c1cc(-c2nn(C)c(C(F)(F)F)c2C)c(F)cc1Cl

>  <recordedEndpoint>
inhibition at 280.212 g/ha

>  <result>
70

$$$$
>  <molecule>
CC(=O)CCCOC(=O)c1cc(-c2nn(C)c(C(F)(F)F)c2C)c(F)cc1Cl

>  <recordedEndpoint>
inhibition at 280.212 g/ha

>  <result>
99

$$$$
>  <molecule>
Cc1c(-c2cc(CS(C)(=O)=O)c(Cl)cc2F)nn(C)c1C(F)(F)F

>  <recordedEndpoint>
inhibition at 280.212 g/ha

>  <result>
65

$$$$
>  <molecule>
Cc1c(-c2cc(C(=O)OC3CCOC3)c(Cl)cc2F)nn(C)c1C(F)(F)F (stereo not drawn)

>  <recordedEndpoint>
inhibition at 280.212 g/ha

>  <result>
90

$$$$
>  <molecule>
Cc1c(-c2cc(C(=O)NC(C)C)c(Cl)cc2F)nn(C)c1C(F)(F)F

>  <recordedEndpoint>
inhibition at 280.212 g/ha

>  <result>
40

$$$$
>  <molecule>
COCc1cc(-c2nn(C)c(C(F)(F)F)c2C)c(F)cc1Cl

>  <recordedEndpoint>
inhibition at 280.212 g/ha

>  <result>
25

$$$$
>  <molecule>
Cc1c(-c2cc(CSC(C)C)c(Cl)cc2F)nn(C)c1C(F)(F)F

>  <recordedEndpoint>
inhibition at 280.212 g/ha

>  <result>
90

$$$$
>  <molecule>
Cc1c(-c2cc(C(=O)OCC(C)C)c(Cl)cc2F)nn(C)c1C(F)(F)F

>  <recordedEndpoint>
inhibition at 280.212 g/ha

>  <result>
50

$$$$
>  <molecule>
CCOC(=O)COC(=O)c1cc(-c2nn(C)c(C(F)(F)F)c2C)c(F)cc1Cl

>  <recordedEndpoint>
inhibition at 280.212 g/ha

>  <result>
90

$$$$
>  <molecule>
Cc1c(-c2cc(CO)c(Cl)cc2F)nn(C)c1C(F)(F)F

>  <recordedEndpoint>
inhibition at 280.212 g/ha

>  <result>
45

$$$$
>  <molecule>
Cc1cc(-c2nn(C)c(C(F)(F)F)c2C)c(F)cc1Cl

>  <recordedEndpoint>
inhibition at 280.212 g/ha

>  <result>
10

$$$$
>  <molecule>
CC(C)OC(=O)c1cc(-c2nn(C)c(C(F)(F)F)c2CF)c(F)cc1Cl

>  <recordedEndpoint>
inhibition at 280.212 g/ha

>  <result>
98

$$$$
>  <molecule>
CC(C)OC(=O)c1cc(-c2nn(C)c(C(F)(F)F)c2C=O)c(F)cc1Cl

>  <recordedEndpoint>
inhibition at 280.212 g/ha

>  <result>
99

$$$$
>  <molecule>
Cc1c(-c2cc(C(=O)O)c(Cl)cc2F)nn(C)c1C(F)(F)F

>  <recordedEndpoint>
inhibition at 280.212 g/ha

>  <result>
45

$$$$

====

tested on: Cocklebur; experiment: pre-emergence herbicide test; type: in vivo; settings: Xanthium strumarium, pre-emergence, 0.893 lb/A; read-out: % plant inhibition

>  <molecule>
Cc1c(-c2cc(F)c([N+](=O)[O-])cc2F)nn(C)c1C(F)(F)F [Compound 35]

>  <inhibition at 1000.92 g/ha, %>
55

$$$$
>  <molecule>
Cc1c(-c2cc(O)c(Cl)cc2F)nn(C)c1C(F)(F)F [Compound 40]

>  <inhibition at 1000.92 g/ha, %>
45

$$$$
>  <molecule>
Cc1c(-c2cc(OCC(=O)OC(C)C)c(Cl)cc2F)nn(C)c1C(F)(F)F [Compound 38]

>  <inhibition at 1000.92 g/ha, %>
90

$$$$
>  <molecule>
Cn1nc(-c2cc(F)ccc2F)c(C=O)c1C(F)(F)F [Compound 34]

>  <inhibition at 1000.92 g/ha, %>
0

$$$$
>  <molecule>
C#CCOc1cc(-c2nn(C)c(C(F)(F)F)c2C)c(F)cc1Cl [Compound 39]

>  <inhibition at 1000.92 g/ha, %>
100

$$$$
>  <molecule>
COc1cc(-c2nn(C)c(C(F)(F)F)c2C)c(F)cc1Cl [Compound 37]

>  <inhibition at 1000.92 g/ha, %>
98

$$$$
>  <molecule>
COc1cc(-c2nn(C)c(C(F)(F)F)c2C)c(F)cc1[N+](=O)[O-] [Compound 36]

>  <inhibition at 1000.92 g/ha, %>
85

$$$$
>  <molecule>
Cc1c(-c2cc(F)ccc2F)nn(C)c1C(F)(F)F [Compound 1]

>  <inhibition at 1000.92 g/ha, %>
0

$$$$

====

system: Velvetleaf; assay: pre-emergence herbicide test; format: in vivo; details: Abutilon theophrasti, pre-emergence, 0.25 lb/A; read-out: % plant inhibition

>  <compound>
Cc1cc(-c2nn(C)c(C(F)(F)F)c2C)c(O)cc1Cl [Compound 16]

>  <unitsSymbol>
%

>  <inhibition at 280.212 g/ha>
0

$$$$
>  <compound>
Cc1c(-c2cc(OCC(=O)OC(C)C)c(Cl)cc2F)nn(C)c1C(F)(F)F [Compound 38]

>  <unitsSymbol>
%

>  <inhibition at 280.212 g/ha>
100

$$$$
>  <compound>
Cc1c(-c2cc(C(N)=O)c(Cl)cc2F)nn(C)c1C(F)(F)F [Compound 21]

>  <unitsSymbol>
%

>  <inhibition at 280.212 g/ha>
25

$$$$
>  <compound>
CCCCCOC(=O)c1cc(-c2nn(C)c(C(F)(F)F)c2C)c(F)cc1Cl [Compound 48]

>  <unitsSymbol>
%

>  <inhibition at 280.212 g/ha>
95

$$$$
>  <compound>
Cc1c(-c2cc(C(=O)OC3CCOC3)c(Cl)cc2F)nn(C)c1C(F)(F)F (stereo not drawn) [Compound 25]

>  <unitsSymbol>
%

>  <inhibition at 280.212 g/ha>
80

$$$$
>  <compound>
CCOC(=O)C(C)OC(=O)c1cc(-c2nn(C)c(C(F)(F)F)c2C)c(F)cc1Cl (stereo not drawn) [Compound 20]

>  <unitsSymbol>
%

>  <inhibition at 280.212 g/ha>
95

$$$$
>  <compound>
COCCOC(=O)c1cc(-c2nn(C)c(C(F)(F)F)c2C)c(F)cc1Cl [Compound 56]

>  <unitsSymbol>
%

>  <inhibition at 280.212 g/ha>
100

$$$$
>  <compound>
Cc1c(-c2cc(C(=O)OCC3CNCCO3)c(Cl)cc2F)nn(C)c1C(F)(F)F (stereo not drawn) [Compound 47]

>  <unitsSymbol>
%

>  <inhibition at 280.212 g/ha>
50

$$$$
>  <compound>
Cc1c(-c2cc(C(=O)OCC(C)C)c(Cl)cc2F)nn(C)c1C(F)(F)F [Compound 45]

>  <unitsSymbol>
%

>  <inhibition at 280.212 g/ha>
98

$$$$

All figures here come from patent US5672715A.
